System: SARS-CoV-2
Assay: High-content screen of GSK3β-focused library in SARS-CoV-2 infected Huh-7.5.1 cells (dsRNA or nucleocapsid)
Format: cell-based
Settings: Severe acute respiratory syndrome coronavirus 2; single dose of 10 μM, Huh-7.5.1 cells, average of screens 1 and 2; read-out: Average SARS-CoV-2 Nucleocapsid inhibition
Classify by measured inhibition at 10 µM: T if it is equal to or exceeds 80%, F if it is smaller.

>  <Compound>
O=C(NCc1ccccn1)Nc1cc(N2CC(CCc3ccccc3)CC2=O)ccn1 (stereo not shown) [Compound P-4423632]

>  <Discrete Label>
T

$$$$
>  <Compound>
CSc1ccc(-c2coc3ccc(-c4nnc(N)o4)cc23)cc1Cl [Compound P-9071942]

>  <Discrete Label>
T

$$$$
>  <Compound>
COc1ccc(-n2cnc3ccc(-c4nnc(SCc5cccc(C#N)c5)o4)cc32)cc1 [Compound P-0780332]

>  <Discrete Label>
F

$$$$
>  <Compound>
C[S+]([O-])c1ccc(-c2coc3ccc(-c4nnc(SCc5cccc(F)c5)o4)cc23)cc1 (stereo not shown) [Compound P-7657632]

>  <Discrete Label>
T

$$$$
>  <Compound>
Cc1nnc(-c2ccc3occ(-c4ccc([S+](C)[O-])c(OC(F)(F)F)c4)c3c2)o1 (stereo not shown) [Compound P-5782442]

>  <Discrete Label>
T

$$$$
>  <Compound>
CSc1ccc(-n2cnc3ccc(-c4nnc(CCc5cccc(C(F)(F)F)c5)o4)cc32)cc1 [Compound P-3817632]

>  <Discrete Label>
F

$$$$

###

# Average cell loss (%) values compiled below
System: Huh-7.5.1 cells
Settings: single dose of 10 μM
Measure Name: Average cell loss (%)

>  <Compound>
C[S+]([O-])c1ccc(-c2coc3ccc(-c4nnc(SCc5cccc(F)c5)o4)cc23)cc1 (stereo not shown) [Compound P-7657632]

>  <Unit Of Measure>
%

>  <Observed Result>
25.4

$$$$
>  <Compound>
CSc1ccc(-n2cnc3ccc(-c4nnc(CCc5cccc(C(F)(F)F)c5)o4)cc32)cc1 [Compound P-3817632]

>  <Unit Of Measure>
%

>  <Observed Result>
12.7

$$$$
>  <Compound>
Cc1nnc(-c2ccc3occ(-c4ccc([S+](C)[O-])c(OC(F)(F)F)c4)c3c2)o1 (stereo not shown) [Compound P-5782442]

>  <Unit Of Measure>
%

>  <Observed Result>
16.1

$$$$
>  <Compound>
CSc1ccc(-n2cnc3ccc(-c4nnc(CCc5cccc(C#N)c5)o4)cc32)cc1 [Compound P-0717632]

>  <Unit Of Measure>
%

>  <Observed Result>
24.4

$$$$
>  <Compound>
COc1ccc(-n2cnc3ccc(-c4nnc(SCc5cccc(C#N)c5)o4)cc32)cc1 [Compound P-0780332]

>  <Unit Of Measure>
%

>  <Observed Result>
9.2

$$$$
>  <Compound>
O=C(NCc1ccccn1)Nc1cc(N2CC(CCc3ccccc3)CC2=O)ccn1 (stereo not shown) [Compound P-4423632]

>  <Unit Of Measure>
%

>  <Observed Result>
12.0

$$$$
>  <Compound>
CSc1ccc(-c2coc3ccc(-c4nnc(N)o4)cc23)cc1Cl [Compound P-9071942]

>  <Unit Of Measure>
%

>  <Observed Result>
29.9

$$$$

###

Target: casein kinase 1-delta (Homo sapiens, UniProt P48730)
Construct: GST; purchased SignalChem C65-10G
Sequence (P48730 whole entry): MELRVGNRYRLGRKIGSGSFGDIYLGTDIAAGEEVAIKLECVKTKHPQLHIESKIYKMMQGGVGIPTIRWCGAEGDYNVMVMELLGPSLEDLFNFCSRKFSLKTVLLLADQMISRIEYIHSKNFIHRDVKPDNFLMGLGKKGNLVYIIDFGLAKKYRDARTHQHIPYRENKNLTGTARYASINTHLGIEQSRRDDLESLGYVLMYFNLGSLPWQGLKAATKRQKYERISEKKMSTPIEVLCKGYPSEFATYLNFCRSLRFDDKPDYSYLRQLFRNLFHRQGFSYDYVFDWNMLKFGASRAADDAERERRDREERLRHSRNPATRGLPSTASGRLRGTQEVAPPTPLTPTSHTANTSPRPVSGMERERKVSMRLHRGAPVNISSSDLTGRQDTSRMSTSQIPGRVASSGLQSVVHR
Test: In vitro phosphorylation of nucleocapsid peptides, ADP-Glo, CK1d
Assay type: biochemical
Settings: peptide ~250 μM, 250 μM ATP, 30 min at 30° C.; duplicate measurements
Where no end group is shown, it is not given here. [ ]: non-standard residue; d: D form. pT = C[C@@H](OP(=O)(O)O)[C@H](N)C(=O)O; pS = N[C@@H](COP(=O)(O)O)C(=O)O
Measure Name: Relative Phosphorylation to Autophosphorylation Control (set at 100), CK1d

>  <Substance>
SSRSRNSSRNS(pT)PG (SSRSRNSSRNS[pT]PG) [SCV2-N [187-200]-pT198, synthetic peptide modeled after SARS-CoV-2 nucleocapsid protein phosphorylation sites, pre-phosphorylated at T198]

>  <Observed Result>
152

$$$$
>  <Substance>
RNSTPGSSRGT(pS)PAR (RNSTPGSSRGT[pS]PAR) [SCV2-N [195-209]-pS206, synthetic peptide modeled after SARS-CoV-2 nucleocapsid protein phosphorylation sites, pre-phosphorylated at S206]

>  <Observed Result>
105

$$$$
>  <Substance>
RNSTPGSSRGTSPAR [SCV2-N [195-209], synthetic peptide modeled after SARS-CoV-2 nucleocapsid protein phosphorylation sites]

>  <Observed Result>
101

$$$$
>  <Substance>
SSRSRNSSRNSTPG [SCV2-N [187-200], synthetic peptide modeled after SARS-CoV-2 nucleocapsid protein phosphorylation sites]

>  <Observed Result>
100

$$$$

###

Target: protein kinase C-alpha (PKC α) (Homo sapiens)
Construct: GST; purchased SignalChem P61-18G
Assay: In vitro phosphorylation of nucleocapsid peptides, ADP-Glo, PKCa
Assay type: biochemical
Details: Mean ± S.Dev. (n = 3); no kinase control = 100
Where no end group is shown, it is not given here. [ ]: non-standard residue; d: D form. pT = C[C@@H](OP(=O)(O)O)[C@H](N)C(=O)O; pS = N[C@@H](COP(=O)(O)O)C(=O)O
Measure Name: Relative Phosphorylation to No Kinase Control, PKCa

>  <Substance>
RGGSQASSRSS(pS)RS (RGGSQASSRSS[pS]RS) [SCV2-N [177-190]-pS188, synthetic peptide modeled after SARS-CoV-2 nucleocapsid protein phosphorylation sites, pre-phosphorylated at S188]

>  <System Under Test>
protein kinase C-alpha (PKC α) (Homo sapiens)

>  <Observed Result>
3861 ± 71

$$$$
>  <Substance>
RGGSQASSRSSSRS [SCV2-N [177-190], synthetic peptide modeled after SARS-CoV-2 nucleocapsid protein phosphorylation sites]

>  <System Under Test>
protein kinase C-alpha (PKC α) (Homo sapiens)

>  <Observed Result>
13,714 ± 502

$$$$
>  <Substance>
SQASSRSSSR(pS)RNS (SQASSRSSSR[pS]RNS) [SCV2-N [180-193]-pS190, synthetic peptide modeled after SARS-CoV-2 nucleocapsid protein phosphorylation sites, pre-phosphorylated at S190]

>  <System Under Test>
protein kinase C-alpha (PKC α) (Homo sapiens)

>  <Observed Result>
4161 ± 66

$$$$
>  <Substance>
RNSTPGSSRGTSPAR [SCV2-N [195-209], synthetic peptide modeled after SARS-CoV-2 nucleocapsid protein phosphorylation sites]

>  <System Under Test>
protein kinase C-alpha (PKC α) (Homo sapiens)

>  <Observed Result>
3301 ± 114

$$$$
>  <Substance>
SSRSRNSSRNS(pT)PG (SSRSRNSSRNS[pT]PG) [SCV2-N [187-200]-pT198, synthetic peptide modeled after SARS-CoV-2 nucleocapsid protein phosphorylation sites, pre-phosphorylated at T198]

>  <System Under Test>
protein kinase C-alpha (PKC α) (Homo sapiens)

>  <Observed Result>
7032 ± 319

$$$$

###

Target: glycogen synthase kinase-3-beta (Homo sapiens, UniProt P49841)
Construct: GST; purchased SignalChem Go9-10G
Sequence (P49841 whole entry): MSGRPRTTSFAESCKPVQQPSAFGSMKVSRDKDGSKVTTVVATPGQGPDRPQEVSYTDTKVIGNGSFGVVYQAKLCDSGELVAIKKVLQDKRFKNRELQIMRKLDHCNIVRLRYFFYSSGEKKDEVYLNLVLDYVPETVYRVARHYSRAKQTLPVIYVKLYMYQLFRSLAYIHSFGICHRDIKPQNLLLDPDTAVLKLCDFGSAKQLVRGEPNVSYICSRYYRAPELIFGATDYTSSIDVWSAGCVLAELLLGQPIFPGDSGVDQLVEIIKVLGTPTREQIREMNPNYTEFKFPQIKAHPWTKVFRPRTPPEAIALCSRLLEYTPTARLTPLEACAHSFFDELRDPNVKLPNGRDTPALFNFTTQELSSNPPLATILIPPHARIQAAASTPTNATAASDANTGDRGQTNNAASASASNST
Test: In vitro phosphorylation of nucleocapsid peptides, ADP-Glo, GSK3b
Format: biochemical
Settings: Mean ± S.Dev. (n = 3); no kinase control = 100
Where no end group is shown, it is not given here. [ ]: non-standard residue; d: D form. pT = C[C@@H](OP(=O)(O)O)[C@H](N)C(=O)O; pS = N[C@@H](COP(=O)(O)O)C(=O)O
Measure Name: Relative Phosphorylation to No Kinase Control, GSK3b

>  <Substance>
SSRSRNSSRNSTPG [SCV2-N [187-200], synthetic peptide modeled after SARS-CoV-2 nucleocapsid protein phosphorylation sites]

>  <Observed Result>
2573 ± 49

$$$$
>  <Substance>
SQASSRSSSR(pS)RNS (SQASSRSSSR[pS]RNS) [SCV2-N [180-193]-pS190, synthetic peptide modeled after SARS-CoV-2 nucleocapsid protein phosphorylation sites, pre-phosphorylated at S190]

>  <Observed Result>
2957 ± 3

$$$$
>  <Substance>
RNSTPGSSRGT(pS)PAR (RNSTPGSSRGT[pS]PAR) [SCV2-N [195-209]-pS206, synthetic peptide modeled after SARS-CoV-2 nucleocapsid protein phosphorylation sites, pre-phosphorylated at S206]

>  <Observed Result>
24,082 ± 381

$$$$
>  <Substance>
SQASSRSSSRSRNS [SCV2-N [180-193], synthetic peptide modeled after SARS-CoV-2 nucleocapsid protein phosphorylation sites]

>  <Observed Result>
2407 ± 23

$$$$
>  <Substance>
RNSTPGSSRGTSPAR [SCV2-N [195-209], synthetic peptide modeled after SARS-CoV-2 nucleocapsid protein phosphorylation sites]

>  <Observed Result>
3291 ± 57

$$$$
>  <Substance>
SSRSRNSSRNS(pT)PG (SSRSRNSSRNS[pT]PG) [SCV2-N [187-200]-pT198, synthetic peptide modeled after SARS-CoV-2 nucleocapsid protein phosphorylation sites, pre-phosphorylated at T198]

>  <Observed Result>
23,031 ± 486

$$$$
>  <Substance>
RGGSQASSRSS(pS)RS (RGGSQASSRSS[pS]RS) [SCV2-N [177-190]-pS188, synthetic peptide modeled after SARS-CoV-2 nucleocapsid protein phosphorylation sites, pre-phosphorylated at S188]

>  <Observed Result>
24,585 ± 645

$$$$
>  <Substance>
RGGSQASSRSSSRS [SCV2-N [177-190], synthetic peptide modeled after SARS-CoV-2 nucleocapsid protein phosphorylation sites]

>  <Observed Result>
2161 ± 63

$$$$
